- target.of.assay: Fumarate hydratase, mitochondrial (Homo sapiens)
- measurement.notes: Identification of activators of human fumarate hydratase by quantitative high-throughput screening; note: % is set by controls: 0 for no effect and ±100 for the full control effect; the screen sought activators but most active calls are inhibition curves; nearly all actives have a fitted effect of over 45% in size
- test.settings: FH coupled MDH/diaphorase resazurin fluorescence, 15 min; series mostly up to 79.9 µM
About 120 (0.22%) of roughly 54,000 compounds were called active. About 8% were inconclusive and are not listed. Only a selection was taken, and actives are over-represented in it overall.
measure: activity change, negative = inhibition

molecule | measure | reported
NC1CCC(Nc2cc(-c3cccc(NCc4cccc(F)c4)n3)c(Cl)cn2)CC1 (stereo not drawn) | activity change, negative = inhibition | inactive
CCc1cc2c(cc3c(=O)n(CC(=O)NCCc4ccc(OC)c(OC)c4)ncn32)s1 | activity change, negative = inhibition | inactive
CC(O)COc1ccccc1 (stereo not drawn) | activity change, negative = inhibition | inactive
Clc1ccc2ncc(-c3cccc(NC4CCNCC4)n3)n2c1 | activity change, negative = inhibition | inactive
O=C(O)CC1CCC(c2ccc(-c3ccc(Nc4ccc(C(F)(F)F)nc4)cn3)cc2)CC1 (stereo not drawn) | activity change, negative = inhibition | inactive
CC(=O)N1CCc2cc(S(=O)(=O)NC(Cc3ccccc3)C(=O)NCc3ccc(C)cc3)ccc21 (stereo not drawn) | activity change, negative = inhibition | inactive
COc1cc(C2c3cc(O)c(OC)cc3CC(CO)C2CO)ccc1O (stereo not drawn) | activity change, negative = inhibition | inactive
O=C(CSCc1cnn(-c2ccccc2)c1-n1cccc1)NCc1ccccc1Br | activity change, negative = inhibition | inactive
COc1ccc(N2CCN(C(=O)c3c(C)oc4nc(C)nc(N5CCCC5)c34)CC2)cc1 | activity change, negative = inhibition | inactive
COC(=O)N1CCC(n2ncc3c(N4CCOCC4)nc(-c4ccc(NC(=O)Nc5ccc(CO)cc5)cc4)nc32)CC1 | activity change, negative = inhibition | inactive
CCOc1ccc(CNC(=O)c2cc(-c3ccc(Cl)s3)nc3ccccc23)cc1 | activity change, negative = inhibition | inactive
CC1CC2C3CCC4=CC(=O)C=C[C@]4(C)[C@@]3(F)[C@@H](O)C[C@]2(C)[C@@]1(O)C(=O)CO (stereo partly drawn) | activity change, negative = inhibition | inactive
Nc1nc2c(ncn2[C@@H]2O[C@@H]3COP(=O)(O)O[C@H]3[C@H]2O)c(=O)[nH]1 | activity change, negative = inhibition | inactive
CCOc1ccc(CCNC(=O)CN(c2ccc(C)cc2)S(=O)(=O)N(C)C)cc1OCC | activity change, negative = inhibition | inactive
C[C@@H]1C/C=C/C=C\C=C\C=C\[C@H](O[C@@H]2O[C@H](C)[C@@H](O)[C@H](N)[C@@H]2O)C[C@@H]2O[C@](O)(C[C@@H](O)C[C@H]3O[C@@H]3/C=C/C(=O)O1)C[C@H](O)[C@H]2C(=O)O | activity change, negative = inhibition | inactive
CNC(=O)c1ccc(-c2nc(CN3CCc4ccccc43)c(C)o2)cc1 | activity change, negative = inhibition | inactive
CCOC(=O)CSc1nc2c(sc3ccccc32)c(=O)n1CCCN1CCCC1 | activity change, negative = inhibition | inactive
COC(=O)c1cc(Cl)c(NC(C)=O)cc1OC | activity change, negative = inhibition | inactive

* * *

- target.of.assay: Fumarate hydratase, mitochondrial (Homo sapiens) (UniProt P07954)
- Sequence (P07954 whole entry, looked up): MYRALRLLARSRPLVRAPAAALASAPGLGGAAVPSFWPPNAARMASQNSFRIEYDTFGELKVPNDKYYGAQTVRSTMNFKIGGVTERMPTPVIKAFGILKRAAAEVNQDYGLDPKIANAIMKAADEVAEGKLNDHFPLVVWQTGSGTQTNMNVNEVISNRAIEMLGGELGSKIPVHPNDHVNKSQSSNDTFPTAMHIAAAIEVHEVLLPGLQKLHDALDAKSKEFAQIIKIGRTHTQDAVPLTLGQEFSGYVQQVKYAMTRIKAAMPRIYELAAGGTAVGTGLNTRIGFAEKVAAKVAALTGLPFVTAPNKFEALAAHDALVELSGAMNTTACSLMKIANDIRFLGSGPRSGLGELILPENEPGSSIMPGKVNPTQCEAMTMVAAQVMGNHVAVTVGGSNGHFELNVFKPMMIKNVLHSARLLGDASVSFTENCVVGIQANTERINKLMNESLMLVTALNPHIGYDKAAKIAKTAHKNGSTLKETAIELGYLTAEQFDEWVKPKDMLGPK
- measurement.notes: Identification of activators of human fumarate hydratase by quantitative high-throughput screening; note: % is set by controls: 0 for no effect and ±100 for the full control effect; the screen sought activators but most active calls are inhibition curves; nearly all actives have a fitted effect of over 45% in size
- test.settings: FH coupled MDH/diaphorase resazurin fluorescence, 15 min; series mostly up to 79.9 µM
Screen size: about 54,000 compounds; about 120 (0.22%) were called active. Roughly 8% stayed inconclusive and do not appear here. For the sample, actives were picked, then their nearest neighbours and some compounds at random.

compound | activity change, negative = inhibition
CCOc1ccc(CC(=O)NCCc2csc3nc(-c4ccccc4F)nn23)cc1 | inactive
C=CC(C)(O)CC/C=C(\C)C(=O)OC1C(O)C(CO)OC(OC(=O)C23CCC(C)(C)CC2C2=CCC4C5(C)CCC(OC6OC(COC7OCC(OC(C)=O)C(O)C7OC7OC(COC(C)=O)C(O)C(O)C7OC(C)=O)C(O)C(O)C6OC6OCC(O)C(O)C6O)C(C)(C)C5CCC4(C)C2(C)C(O)C3O)C1OC1OCC(OC2OCC(O)C(OC3OCC(O)C(O)C3O)C2O)C(O)C1O (stereo not drawn) | 3.1% [at 13.5 µM] (inactive)
CCOc1cc(C(=O)NCCc2csc3nc(-c4ccc(C)cc4)nn23)cc(OCC)c1OCC | inactive
